tested on: MOLT-4; assay: NCI tumour cell line growth inhibition, 48 h
Active and inactive are the calls of the source. Rule as the data show it: active = GI50 up to about 1.1 µM and inactive = higher.
Respond using exactly one of the listed classes: y = active, n = inactive

Q: Please state the recorded outcome for this molecule: CSc1nc(=O)n(CCC#N)nc1SC
A: n

Q: Please state the recorded outcome for this molecule: CP(C)(=S)P(C)(C)=S
A: n

Q: Please state the recorded outcome for this molecule: COC(=O)Cc1c(-c2[nH]c3ccccc3c2CC(=O)OC)[nH]c2ccccc12
A: n

Q: Please state the recorded outcome for this molecule: CC/C(SC)=[N+](\C)[O-]
A: n

Q: Please state the recorded outcome for this molecule: Cn1cc(C(=O)C2CCCCC2)ccc1=O
A: n

Q: Please state the recorded outcome for this molecule: C1=C(c2ccccc2)SC(N2CCCCC2)S1 (stereo unspecified)
A: n

Q: Please state the recorded outcome for this molecule: COc1ccc(NC(C)=O)cc1C1CCC(=O)N1 (stereo unspecified)
A: n

Q: Please state the recorded outcome for this molecule: O=C1CC2=CCCC2O1 (stereo unspecified)
A: n

Q: Please state the recorded outcome for this molecule: O=[N+]([O-])c1cccc2nccc(NCCN3CCOCC3)c12
A: n

Q: Please state the recorded outcome for this molecule: CC(CC(=O)CO[C@H]1[C@H](O)[C@@H](O)[C@@H](O)[C@@H]2NC(=O)c3c(cc4c(c3O)OCO4)[C@H]21)OC1OC(CO)C(O)C(O)C1O (stereo partly specified)
A: y

Q: Please state the recorded outcome for this molecule: Cc1c2c(cc3c(=O)ccn(CCN(C)C)c13)c(=O)ccn2CCN(C)C
A: n

Q: Please state the recorded outcome for this molecule: C[n+]1c2ccccc2c(NC(CCCNC(=N)N)C(=O)O)c2ccccc21 (stereo unspecified)
A: n

Q: Please state the recorded outcome for this molecule: N=c1oc2ccc(Cl)cc2cc1C(=O)NC1CCCCC1
A: n

Q: Please state the recorded outcome for this molecule: CNc1nc(N)c(N=O)c(Nc2ccc(Br)cc2)n1
A: n

Q: Please state the recorded outcome for this molecule: COC(=O)C[C@H](COCc1ccccc1)NC(=O)C[C@H](COCc1ccccc1)NC(=O)C[C@H](COCc1ccccc1)NC(=O)OC(C)(C)C
A: n

Q: Please state the recorded outcome for this molecule: Nc1ncc2c(n1)-c1ccccc1OC2N1CCCCC1 (stereo unspecified)
A: n

All values here come from ChEMBL document CHEMBL1201862.
